# System: DU-145
# protocol-details: Cytotoxicity against human DU145 cells
# Format: cell-based
Hi there, I'd appreciate the recorded LC50 for every entry that follows.

Enquiry: State its LC50: CC(C)C(/C=C/c1ccccc1)n1cc(/C=C/C(=O)NO)nn1 (centres undefined)
Return: > 100 µM

Enquiry: State its LC50: O=C(/C=C/c1cn(C(/C=C/c2ccccc2)Cc2ccccc2)nn1)NO (centres undefined)
Return: 46.3 µM

Enquiry: State its LC50: CC(/C=C/c1ccccc1)n1cc(/C=C/C(=O)NO)nn1 (centres undefined)
Return: > 100 µM

Enquiry: State its LC50: O=C(/C=C/c1ccc(CN(CCO)CCc2c[nH]c3ccccc23)cc1)NO
Return: > 100 µM

====

# System: SW-620
# protocol-details: Antiproliferative activity against human SW620 cells by SRB assay
# Format: functional
Hi there, I'd appreciate the recorded GI50 for every entry that follows.
Field: value (include unit after the number)

Enquiry: State its GI50: CC(/C=C/c1ccccc1)n1cc(/C=C/C(=O)NO)nn1 (centres undefined)
Return: 383 nM

Enquiry: State its GI50: CC(C)C(/C=C/c1ccccc1)n1cc(/C=C/C(=O)NO)nn1 (centres undefined)
Return: 649 nM

Enquiry: State its GI50: O=C(/C=C/c1ccc(CN(CCO)CCc2c[nH]c3ccccc23)cc1)NO [DACINOSTAT]
Return: 478 nM

Enquiry: State its GI50: O=C(/C=C/c1cn(C(/C=C/c2ccccc2)Cc2ccccc2)nn1)NO (centres undefined)
Return: 892 nM

====

Hi there, I'd appreciate the recorded LC50 for every entry that follows.
# System: HCT-15
# protocol-details: Cytotoxicity against human HCT15 cells
# Type: cell-based
Write it as a number; the unit µM goes unstated.

Enquiry: Report measured LC50 on HCT-15; entry: CC(/C=C/c1ccccc1)n1cc(/C=C/C(=O)NO)nn1 (centres undefined)
Return: 42.8

Enquiry: Report measured LC50 on HCT-15; entry: O=C(/C=C/c1ccc(CN(CCO)CCc2c[nH]c3ccccc23)cc1)NO [DACINOSTAT]
Return: 56.4

Enquiry: Report measured LC50 on HCT-15; entry: O=C(/C=C/c1cn(C(/C=C/c2ccccc2)Cc2ccccc2)nn1)NO (centres undefined)
Return: 74.5

====

# Tested on: U-251
# protocol-details: Antiproliferative activity against human U251 cells by SRB assay
# Type: functional
result-type: GI50 (nM)
Write it as a number; the unit nM goes unstated.

Enquiry: State its GI50: O=C(/C=C/c1ccc(CN(CCO)CCc2c[nH]c3ccccc23)cc1)NO
Return: 773

Enquiry: State its GI50: CC(C)C(/C=C/c1ccccc1)n1cc(/C=C/C(=O)NO)nn1 (centres undefined)
Return: 1130

Enquiry: State its GI50: O=C(/C=C/c1cn(C(/C=C/c2ccccc2)Cc2ccccc2)nn1)NO (centres undefined)
Return: 948

Enquiry: State its GI50: CC(/C=C/c1ccccc1)n1cc(/C=C/C(=O)NO)nn1 (centres undefined)
Return: 777

====

# System: MOLT-4
# protocol-details: Cytotoxicity against human MOLT4 cells
# Format: cell-based
Hi there, I'd appreciate the recorded LC50 for every entry that follows.

Enquiry: Report measured LC50 on MOLT-4; entry: CC(/C=C/c1ccccc1)n1cc(/C=C/C(=O)NO)nn1 (centres undefined)
Return: > 100 µM

Enquiry: Report measured LC50 on MOLT-4; entry: CC(C)C(/C=C/c1ccccc1)n1cc(/C=C/C(=O)NO)nn1 (centres undefined)
Return: > 100 µM

Enquiry: Report measured LC50 on MOLT-4; entry: O=C(/C=C/c1cn(C(/C=C/c2ccccc2)Cc2ccccc2)nn1)NO (centres undefined)
Return: > 100 µM

Enquiry: Report measured LC50 on MOLT-4; entry: O=C(/C=C/c1ccc(CN(CCO)CCc2c[nH]c3ccccc23)cc1)NO
Return: 86.9 µM

====

Hi there, I'd appreciate the recorded GI50 for every entry that follows.
# Tested on: HL-60(TB)
# protocol-details: Antiproliferative activity against human HL-60(TB) cells by SRB assay
# Format: functional
Write it as a number; the unit nM goes unstated.

Enquiry: State its GI50: CC(/C=C/c1ccccc1)n1cc(/C=C/C(=O)NO)nn1 (centres undefined)
Return: 269

Enquiry: State its GI50: CC(C)C(/C=C/c1ccccc1)n1cc(/C=C/C(=O)NO)nn1 (centres undefined)
Return: 728

Enquiry: State its GI50: O=C(/C=C/c1ccc(CN(CCO)CCc2c[nH]c3ccccc23)cc1)NO
Return: 249

Enquiry: State its GI50: O=C(/C=C/c1cn(C(/C=C/c2ccccc2)Cc2ccccc2)nn1)NO (centres undefined)
Return: 670

====

Hi there, I'd appreciate the recorded LC50 for every entry that follows.
# System: HT-29
# protocol-details: Cytotoxicity against human HT-29 cells
# Type: cell-based

Enquiry: State its LC50: O=C(/C=C/c1ccc(CN(CCO)CCc2c[nH]c3ccccc23)cc1)NO
Return: > 100 µM

Enquiry: State its LC50: O=C(/C=C/c1cn(C(/C=C/c2ccccc2)Cc2ccccc2)nn1)NO (centres undefined)
Return: > 100 µM

Enquiry: State its LC50: CC(C)C(/C=C/c1ccccc1)n1cc(/C=C/C(=O)NO)nn1 (centres undefined)
Return: > 100 µM

Enquiry: State its LC50: CC(/C=C/c1ccccc1)n1cc(/C=C/C(=O)NO)nn1 (centres undefined)
Return: 33.9 µM

====

# Tested on: BT-549
# protocol-details: Cytotoxicity against human BT549 cells
# Assay type: cell-based
result-type: LC50

Enquiry: State its LC50: CC(/C=C/c1ccccc1)n1cc(/C=C/C(=O)NO)nn1 (centres undefined)
Return: > 100 µM

Enquiry: State its LC50: CC(C)C(/C=C/c1ccccc1)n1cc(/C=C/C(=O)NO)nn1 (centres undefined)
Return: > 100 µM

Enquiry: State its LC50: O=C(/C=C/c1ccc(CN(CCO)CCc2c[nH]c3ccccc23)cc1)NO
Return: 85.6 µM

Enquiry: State its LC50: O=C(/C=C/c1cn(C(/C=C/c2ccccc2)Cc2ccccc2)nn1)NO (centres undefined)
Return: > 100 µM

====

# Test system: EKVX
# protocol-details: Antiproliferative activity against human EKVX cells by SRB assay
# Type: functional
Hi there, I'd appreciate the recorded GI50 for every entry that follows.
Field: value (include unit after the number)

Enquiry: State its GI50: O=C(/C=C/c1cn(C(/C=C/c2ccccc2)Cc2ccccc2)nn1)NO (centres undefined)
Return: 1460 nM

Enquiry: State its GI50: O=C(/C=C/c1ccc(CN(CCO)CCc2c[nH]c3ccccc23)cc1)NO
Return: 1750 nM

Enquiry: State its GI50: CC(/C=C/c1ccccc1)n1cc(/C=C/C(=O)NO)nn1 (centres undefined)
Return: 2090 nM

Enquiry: State its GI50: CC(C)C(/C=C/c1ccccc1)n1cc(/C=C/C(=O)NO)nn1 (centres undefined)
Return: 1810 nM

====

# System: RPMI-8226
# protocol-details: Antiproliferative activity against human RPMI8226 cells by SRB assay
# Assay type: functional
Hi there, I'd appreciate the recorded GI50 for every entry that follows.
Write it as a number; the unit nM goes unstated.

Enquiry: State its GI50: O=C(/C=C/c1ccc(CN(CCO)CCc2c[nH]c3ccccc23)cc1)NO
Return: 523

Enquiry: State its GI50: O=C(/C=C/c1cn(C(/C=C/c2ccccc2)Cc2ccccc2)nn1)NO (centres undefined)
Return: 743

Enquiry: State its GI50: CC(C)C(/C=C/c1ccccc1)n1cc(/C=C/C(=O)NO)nn1 (centres undefined)
Return: 317

Enquiry: State its GI50: CC(/C=C/c1ccccc1)n1cc(/C=C/C(=O)NO)nn1 (centres undefined)
Return: 407

====

# System: RXF 393
# protocol-details: Cytotoxicity against human RXF393 cells
# Format: cell-based
result-type: LC50

Enquiry: State its LC50: CC(/C=C/c1ccccc1)n1cc(/C=C/C(=O)NO)nn1 (centres undefined)
Return: > 100 µM

Enquiry: State its LC50: O=C(/C=C/c1cn(C(/C=C/c2ccccc2)Cc2ccccc2)nn1)NO (centres undefined)
Return: 7.61 µM

Enquiry: State its LC50: CC(C)C(/C=C/c1ccccc1)n1cc(/C=C/C(=O)NO)nn1 (centres undefined)
Return: 7.68 µM

Enquiry: State its LC50: O=C(/C=C/c1ccc(CN(CCO)CCc2c[nH]c3ccccc23)cc1)NO [DACINOSTAT]
Return: 15.3 µM

====

Hi there, I'd appreciate the recorded GI50 for every entry that follows.
# Tested on: HOP-92
# protocol-details: Antiproliferative activity against human HOP92 cells by SRB assay
# Format: functional
Write it as a number; the unit nM goes unstated.

Enquiry: State its GI50: CC(C)C(/C=C/c1ccccc1)n1cc(/C=C/C(=O)NO)nn1 (centres undefined)
Return: 1730

Enquiry: State its GI50: O=C(/C=C/c1ccc(CN(CCO)CCc2c[nH]c3ccccc23)cc1)NO
Return: 199

Enquiry: State its GI50: CC(/C=C/c1ccccc1)n1cc(/C=C/C(=O)NO)nn1 (centres undefined)
Return: 677

Enquiry: State its GI50: O=C(/C=C/c1cn(C(/C=C/c2ccccc2)Cc2ccccc2)nn1)NO (centres undefined)
Return: 1080
